Origin of measurements: patent US20230183293A1

# ASSAY REMARKS: in vitro
# RECORDED CONDITIONS: African green monkey
RECORDED ENDPOINT: CC50

Request the reported CC50 associated with C=C/C=C/C[C@@H](C)[C@@H](O)[C@H]1C(=O)N[C@@H](CC)C(=O)N(C)CC(=O)N(C)[C@@H](CC(C)C)C(=O)N[C@@H](C(C)C)C(=O)N(C)[C@@H](CC(C)C)C(=O)N[C@@H](C)C(=O)N[C@H](C)C(=O)N(C)[C@@H](CC(C)C)C(=O)N(C)[C@@H](CC(C)C)C(=O)N(C)[C@@H](C(C)C)C(=O)N1C ~4 µM
